measurement.target: recombinant human tissue transglutaminase (Homo sapiens)
Sequence (P21980 1-687): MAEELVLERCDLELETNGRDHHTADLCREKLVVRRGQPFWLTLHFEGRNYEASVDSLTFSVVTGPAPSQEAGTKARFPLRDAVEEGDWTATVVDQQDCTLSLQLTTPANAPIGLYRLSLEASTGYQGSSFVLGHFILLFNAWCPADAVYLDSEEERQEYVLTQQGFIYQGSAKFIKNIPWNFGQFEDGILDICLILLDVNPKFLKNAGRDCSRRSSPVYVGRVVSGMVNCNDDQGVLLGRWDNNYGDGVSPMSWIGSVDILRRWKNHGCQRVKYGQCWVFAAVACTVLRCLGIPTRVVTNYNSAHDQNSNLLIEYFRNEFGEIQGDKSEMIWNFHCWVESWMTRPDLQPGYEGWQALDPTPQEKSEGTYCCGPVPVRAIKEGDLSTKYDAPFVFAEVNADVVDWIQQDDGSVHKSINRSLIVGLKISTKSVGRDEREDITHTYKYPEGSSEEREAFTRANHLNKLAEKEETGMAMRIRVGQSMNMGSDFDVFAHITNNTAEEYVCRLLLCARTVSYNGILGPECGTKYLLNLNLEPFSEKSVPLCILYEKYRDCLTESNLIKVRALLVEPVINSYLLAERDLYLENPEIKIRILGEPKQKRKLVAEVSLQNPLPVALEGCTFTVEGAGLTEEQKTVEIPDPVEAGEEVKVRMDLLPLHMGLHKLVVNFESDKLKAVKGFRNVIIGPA
assay.name: tTGase assay with recombinant human tissue transglutaminase
details: dihydroisoxazole inhibitors of human tTGase; competitive with Cbz-Gln-Gly substrate; read-out: Dissociation Constants (Kl)
value.kind: pKi
pKi (log units): -log10 of the concentration in mol/L.

molecule | pKi
O=C(N[C@@H](Cc1c[nH]c2ccc(O)cc12)C(=O)NCC1CC(Br)=NO1)OCC1=Cc2ccccc2S1(=O)=O (stereo partly drawn) | 4.10
O=C(N[C@@H](Cc1ccc(O)cc1)C(=O)NCC1CC(Br)=NO1)OCc1ccncc1 (stereo partly drawn) | 4.09

// next item, pKi requested
Entry O=C(N[C@@H](Cc1ccc(O)cc1)C(=O)NCC1CC(Br)=NO1)OCC1=Cc2ccccc2S1(=O)=O (stereo partly drawn) , pKi reported as 4.06

###

measurement.target: recombinant human tissue transglutaminase (Homo sapiens, UniProt P21980)
assay.name: tTGase assay with recombinant human tissue transglutaminase
details: dihydroisoxazole inhibitors of human tTGase; competitive with Cbz-Gln-Gly substrate; read-out: Dissociation Constants (Kl)
value.kind: pKi
pKi (log units): -log10 of the concentration in mol/L.

molecule | pKi
O=C(N[C@@H](Cc1ccc(O)cc1)C(=O)NCC1CC(Br)=NO1)OCCc1ccccc1 (some centres unmarked) | 4.21
O=C(N[C@@H](Cc1c[nH]c2ccc(O)cc12)C(=O)NCC1CC(Br)=NO1)OCc1ccccc1 (some centres unmarked) | 3.96
O=C(N[C@@H](Cc1c[nH]c2ccccc12)C(=O)NCC1CC(Br)=NO1)OCc1ccccc1 (some centres unmarked) | 3.51
O=C(N[C@@H](Cc1ccc(O)cc1)C(=O)NCC1CC(Br)=NO1)OCc1ccccc1 (some centres unmarked) | 3.38
O=C(N[C@@H](Cc1ccc(F)cc1)C(=O)NCC1CC(Br)=NO1)OCc1ccccc1 (some centres unmarked) | 3.37

Note to self: pKi of O=C(N[C@@H](Cc1ccc(O)cc1)C(=O)NCC1CC(Br)=NO1)OCc1ccc2ccccc2c1 (some centres unmarked) with recombinant human tissue transglutaminase (Homo sapiens, UniProt P21980) was 4.37

Note to self: pKi of O=C(N[C@@H](Cc1ccc(O)cc1)C(=O)NCC1CC(Br)=NO1)OCc1cccnc1 (some centres unmarked) with recombinant human tissue transglutaminase (Homo sapiens, UniProt P21980) was 4.11

Note to self: pKi of O=C(N[C@@H](Cc1cccc(F)c1)C(=O)NCC1CC(Br)=NO1)OCc1ccccc1 (some centres unmarked) with recombinant human tissue transglutaminase (Homo sapiens, UniProt P21980) was 3.41

###

measurement.target: recombinant human tissue transglutaminase (Homo sapiens, UniProt P21980)
Construct: made in house
assay.name: tTGase assay with recombinant human tissue transglutaminase
Format: biochemical
details: dihydroisoxazole inhibitors of human tTGase
Label rule, in plain words: kinh/Kl of 2000 min^−1M^−1 and up is Criterion met, under 2000 min^−1M^−1 is Criterion not met.

Past entries and their recorded results:
compound | class
O=C(N[C@@H](Cc1ccc(O)cc1)C(=O)NCC1CC(Br)=NO1)OCc1cccnc1 (stereo partly drawn) [3c] | Criterion met
O=C(N[C@@H](Cc1ccc(O)cc1)C(=O)NCC1CC(Br)=NO1)OCCc1ccccc1 (stereo partly drawn) [3d] | Criterion not met
O=C(N[C@@H](Cc1c[nH]c2ccccc12)C(=O)NCC1CC(Br)=NO1)OCc1ccccc1 (stereo partly drawn) [1e] | Criterion met

Qu. Textbook exercise: given the entry O=C(N[C@@H](Cc1cccc(F)c1)C(=O)NCC1CC(Br)=NO1)OCc1ccccc1 (stereo partly drawn) [1d] , state whether its kinh/Kl is greater than or equal to 2000 min^−1M^−1.
Ans. Criterion met

Qu. Textbook exercise: given the entry O=C(N[C@@H](Cc1ccc(F)cc1)C(=O)NCC1CC(Br)=NO1)OCc1ccccc1 (stereo partly drawn) [1c] , state whether its kinh/Kl is greater than or equal to 2000 min^−1M^−1.
Ans. Criterion not met

###

// Inhibition Rate Constants (kinh) lookup, one value per entry
measurement.target: recombinant human tissue transglutaminase (Homo sapiens)
Construct: made in house
Sequence (P21980 1-687): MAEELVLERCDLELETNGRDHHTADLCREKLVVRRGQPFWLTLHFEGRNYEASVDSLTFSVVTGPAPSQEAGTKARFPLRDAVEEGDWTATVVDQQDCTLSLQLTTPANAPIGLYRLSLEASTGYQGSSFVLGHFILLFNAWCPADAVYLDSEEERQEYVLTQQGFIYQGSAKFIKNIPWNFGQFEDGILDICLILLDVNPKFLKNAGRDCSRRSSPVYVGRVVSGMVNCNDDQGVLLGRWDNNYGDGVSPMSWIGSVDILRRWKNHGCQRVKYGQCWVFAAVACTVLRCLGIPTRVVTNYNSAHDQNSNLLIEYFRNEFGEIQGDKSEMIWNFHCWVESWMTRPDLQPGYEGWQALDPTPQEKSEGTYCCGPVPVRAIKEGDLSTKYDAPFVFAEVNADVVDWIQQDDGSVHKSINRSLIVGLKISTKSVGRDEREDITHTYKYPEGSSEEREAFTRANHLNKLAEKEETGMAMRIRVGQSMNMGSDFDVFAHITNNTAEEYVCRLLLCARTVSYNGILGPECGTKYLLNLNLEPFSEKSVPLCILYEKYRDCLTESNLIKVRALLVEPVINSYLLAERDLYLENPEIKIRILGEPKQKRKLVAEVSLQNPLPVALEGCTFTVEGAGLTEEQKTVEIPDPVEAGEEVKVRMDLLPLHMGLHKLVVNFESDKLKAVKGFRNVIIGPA
assay.name: tTGase assay with recombinant human tissue transglutaminase
Format: biochemical
details: dihydroisoxazole inhibitors of human tTGase; irreversible inactivation
Report the figure in min⁻¹ without appending any unit label.

Past entries and their recorded results:
molecule | result.units | quantitative.result
O=C(N[C@@H](Cc1c[nH]c2ccc(O)cc12)C(=O)NCC1CC(Br)=NO1)OCC1=Cc2ccccc2S1(=O)=O (stereo partly shown) [compound 4] | min⁻¹ | 0.54
C[C@H](NC(=O)OCc1ccccc1)C(=O)NCC1CC(Br)=NO1 (stereo partly shown) [1i] | min⁻¹ | 0.41
O=C(N[C@@H](Cc1ccccc1)C(=O)NCC1CC(Br)=NO1)OCc1ccccc1 (stereo partly shown) [1a] | min⁻¹ | 1.3
O=C(N[C@@H](Cc1cccc(F)c1)C(=O)NCC1CC(Br)=NO1)OCc1ccccc1 (stereo partly shown) [1d] | min⁻¹ | 0.84
O=C(N[C@H](Cc1ccccc1)C(=O)NCC1CC(Br)=NO1)OCc1ccccc1 (stereo partly shown) [1h] | min⁻¹ | 0.29
O=C(N[C@@H](Cc1ccccc1)C(=O)OCC1CC(Br)=NO1)OCc1ccccc1 (stereo partly shown) [2a] | min⁻¹ | 0.32

// next item, Inhibition Rate Constants (kinh) requested
Entry O=C(N[C@@H](Cc1c[nH]c2ccccc12)C(=O)NCC1CC(Br)=NO1)OCc1ccccc1 (stereo partly shown) [1e] , Inhibition Rate Constants (kinh) reported as 0.78
